System: HOP-92 NSCLC
Measurement Description: NCI tumour cell line growth inhibition, 48 h
In this section we review reported TGI values for a set of molecules.
# output: bare number, implied unit µM

# Molecule, Unit String, Observed Value
records = [
    ("CC1=C[C@@H](C)C[C@]2(C)CC[C@H](O2)[C@]23CC[C@](C)(C[C@H](O2)[C@@H]2O[C@@](C)(CC2=O)[C@@H](O)[C@H]2CC[C@@]4(CCC[C@@H](O4)[C@H](C)C(=O)O[C@H]4C[C@H]([C@]5(O)OCC[C@H](C)[C@@H]5O)O[C@H]4C=C1)O2)O3", "µM", 0.00517),
    ("CC1(C)CCCCCCCCCC(C)(CCCCCCCCCCCCO)C1=O (centres undefined)", "µM", 31.7),
    ("COc1cc(/C=C/[N+](=O)[O-])cc(OC)c1OC", "µM", 6.52),
]

Next up:
Tell me reported TGI for Cc1oc2c(c1C(=O)N1CC[C@@H](N)C1)C(=O)c1c(c(O)c3ccccc3c1O)C2=O , tested with HOP-92 NSCLC.
17.4

Data provenance is PubChem BioAssay (NCI).
